Measured TGI by item
system: COLO 205 colon; assay: NCI tumour cell line growth inhibition, 48 h

{"columns": ["compound", "TGI"],
 "data": [
  ["Cc1cc(S(=O)(=O)Nc2nc3cscc3c(=O)n2N)c(S)cc1Cl", "> 100 µM"],
  ["CC(C)(C)OC(=O)C(C#N)C(=O)c1ccc(C(=O)O)[nH]1 (configuration not stated)", "> 100 µM"],
  ["Cc1cn(C2CC(COCc3ccccc3)N(CCO[Si](C)(C)C(C)(C)C)O2)c(=O)[nH]c1=O (configuration not stated)", "28.4 µM"],
  ["CN1CCN(CCCOc2ccc3nc(Nc4ccc(F)c(F)c4)ccc3c2)CC1", "3.69 µM"],
  ["CC(c1ccccc1)n1cncc1C(=O)NN1CCN(C)CC1 (configuration not stated)", "> 10 µM"],
  ["COc1cc2c3c(n(C)c(=O)c2cc1OC)-c1cc2c(cc1/C3=C\\CCCCCBr)OCO2", "> 100 µM"],
  ["Nc1nc(Cl)nc2c1ncn2C1OC(CO)C(O)C1F (configuration not stated)", "> 100 µM"],
  ["Cc1nc2ccc(Br)cc2c(=O)n1-c1ccc(N)cc1", "> 100 µM"],
  ["Cc1nc2ccc(Cl)cc2c2c1CCO2", "> 100 µM"],
  ["CCN(CC)CCCNCc1cc(-c2ccccc2)nc2cc(Cl)ccc12", "3.27 µM"],
  ["Cc1cc2c(=O)c3ccc(Cl)cc3[nH]c2c(C(N)=O)c1C", "> 100 µM"],
  ["Cc1cc(N2CCCCC2)nc2ccc(Cc3ccc4nc(N5CCCCC5)cc(C)c4c3)cc12", "> 100 µM"]
]}

* * *

Measured TGI by item
tested on: OVCAR-4 ovarian; test: NCI tumour cell line growth inhibition, 48 h

{"columns": ["molecule", "TGI"],
 "data": [
  ["O=c1c2ccccc2nc(N/N=C/c2ccc([N+](=O)[O-])cc2)n1-c1ccccc1", "> 100 µM"],
  ["CCOC(=O)c1c(-c2ccccc2)[n+](=O)c2cc(F)c(F)cc2n1[O-]", "2.16 µM"],
  ["CN(C)c1ccc(/C=c2/c3ccccc3n3c2cc(/C=C/c2ccccc2)[n+]3C)cc1", "1.86 µM"],
  ["CCN(CC)CCCNCc1cc(-c2ccccc2)nc2cc(Cl)ccc12", "20.5 µM"],
  ["Cc1ccc(S(=O)(=O)OCCC2CN(C(=O)OCc3ccccc3)C(C)(C)O2)cc1 (stereo unspecified)", "> 100 µM"],
  ["COC(=O)C(=O)C(C(=O)C(=O)Nc1ccccc1[N+](=O)[O-])c1nc2ccc([N+](=O)[O-])cc2[nH]c1=O (stereo unspecified)", "> 100 µM"],
  ["Nc1nc(Cl)nc2c1ncn2C1OC(CO)C(O)C1F (stereo unspecified)", "> 100 µM"],
  ["Cc1ccc(N2C(=O)C3CSCN3C2=O)cc1 (stereo unspecified)", "> 100 µM"],
  ["C=C(C)[C@@H]1CCc2c(O)c(O)c(=O)cc(C)c2C1", "> 100 µM"],
  ["Fc1ccc2c(c1)C1=C(CCC2)C(c2ccc(Cl)cc2)NC(=S)N1 (stereo unspecified)", "> 100 µM"],
  ["O=C1N2CCC[C@H]2CS1(=O)=O", "28.6 µM"],
  ["COc1ccc(Nc2ncnc3ccc(-c4cncc(NS(C)(=O)=O)c4)cc23)cc1Cl", "83.1 µM"],
  ["O=[N+]([O-])c1cc(/C=N\\NS(=O)(=O)c2ccc(Cl)cc2)c(O)c([N+](=O)[O-])c1", "> 100 µM"],
  ["Cc1cc2c(=O)c3ccc(Cl)cc3[nH]c2c(C(N)=O)c1C", "> 100 µM"],
  ["Cc1ccc(N2C(=O)/C(=C/c3ccc(N(CCC#N)CCC#N)cc3)N=C2COc2ccc(Cl)cc2Cl)cc1", "> 100 µM"],
  ["O=S(=O)(/N=S(/Nc1ccccc1)C(F)(F)Cl)c1ccccc1 (stereo unspecified)", "> 100 µM"],
  ["CCOC(=O)c1sc2c(C(=O)OCC)n3cc(C)cc(C)c3c2c1O", "> 100 µM"],
  ["COc1ccc(-n2c(N)c(C#N)c(C#N)c2-c2ccco2)cc1", "> 100 µM"],
  ["COc1ccc(C2NN=C3c4ccccc4CCC32)cc1 (stereo unspecified)", "24.6 µM"],
  ["CC(=O)c1c[nH]c2ccc(-c3ccnc(Nc4ccc(NC(=O)C5CCCC5)c(CN5CCOCC5)c4)n3)cc12", "0.573 µM"],
  ["N#C/C(=C/N1CCN(C(=O)c2ccco2)C1=S)C(=O)Nc1ccc(Cl)cc1", "> 50 µM"]
]}

* * *

test system: SK-OV-3 ovarian; assay: NCI tumour cell line growth inhibition, 48 h

{"columns": ["molecule", "test_target", "TGI"],
 "data": [
  ["COc1c(OC)c(OC)c2c(=O)cc(-c3ccc(OC(C)C)cc3)oc2c1OC", "SK-OV-3 ovarian", "> 50.5 µM"],
  ["CN(C)C=N[C@@H](C(=O)O)c1ccccc1", "SK-OV-3 ovarian", "> 100 µM"],
  ["N#CC1=C(N)NC(N2CCOCC2)=NC12Nc1ccccc1O2 (stereo unspecified)", "SK-OV-3 ovarian", "> 100 µM"],
  ["O=C1CS/C(=N/S(=O)(=O)c2ccc(N3N=C4c5ccccc5CC4C3c3cccs3)cc2)N1C(=O)c1ccccc1 (stereo unspecified)", "SK-OV-3 ovarian", "> 100 µM"],
  ["CC12OC(C(=O)C13CC3)C1C(=O)c3c(O)ccc(O)c3C(=O)C12 (stereo unspecified)", "SK-OV-3 ovarian", "78 µM"],
  ["O=S(=O)(/N=S(/Nc1ccccc1)C(F)(F)Cl)c1ccccc1 (stereo unspecified)", "SK-OV-3 ovarian", "> 100 µM"],
  ["NC(N)=NC(N)=Nc1ccc(C(=O)O)cc1", "SK-OV-3 ovarian", "> 100 µM"],
  ["OCCCCC#Cc1ccccc1C#Cc1cccnc1", "SK-OV-3 ovarian", "> 100 µM"],
  ["COc1cc2c3c(n(C)c(=O)c2cc1OC)-c1cc2c(cc1/C3=C\\CCCCCBr)OCO2", "SK-OV-3 ovarian", "79.3 µM"],
  ["COc1cc(OC)c2c(=O)cc(-c3ccccc3OCc3ccccc3)oc2c1OC", "SK-OV-3 ovarian", "> 100 µM"],
  ["CN(C)CCN1C(=O)c2cccc3c(/C=C/CN4C(=O)c5cccc6cccc(c56)C4=O)ccc(c23)C1=O", "SK-OV-3 ovarian", "> 100 µM"]
]}

* * *

test system: SF-539 CNS; assay: NCI tumour cell line growth inhibition, 48 h

{"columns": ["molecule", "test_target", "unit_abbreviation", "sign_qualifier", "TGI"],
 "data": [
  ["COC(=O)/C(C#N)=C1\\CCC(OC)N1C (stereo not given)", "SF-539 CNS", "µM", ">", 100],
  ["CCCCCCCC(=O)[O-].CCCCCCCC(=O)[O-].N.N.N.N.[Co+3].[O-][Cl+3]([O-])([O-])[O-]", "SF-539 CNS", "µM", ">", 100],
  ["CC1CCCC(C#N)(NOC2=NCCN2)C1 (stereo not given)", "SF-539 CNS", "µM", "=", 40.4],
  ["COC(=O)c1c2c(cc3c1CC1(Cc4cc5c(c(C)c4C1)CCC5)C3)CCC2 (stereo not given)", "SF-539 CNS", "µM", ">", 100],
  ["Cc1cn(C2CC(COCc3ccccc3)N(CCO[Si](C)(C)C(C)(C)C)O2)c(=O)[nH]c1=O (stereo not given)", "SF-539 CNS", "µM", "=", 33.9]
]}

* * *

Measured TGI by item
test system: SK-MEL-28 melanoma; assay: NCI tumour cell line growth inhibition, 48 h
readout_name: TGI (µM)

{"columns": ["compound", "readout_name", "sign_qualifier", "obs_value"],
 "data": [
  ["Cc1cc2nc3ccccc3n2c2ccccc12", "TGI", ">", 10],
  ["CC12OC(C(=O)C13CC3)C1C(=O)c3c(O)ccc(O)c3C(=O)C12 (configuration not stated)", "TGI", "=", 78.7],
  ["COc1cc(OC)c2c(=O)cc(-c3ccccc3OCc3ccccc3)oc2c1OC", "TGI", "=", 46.5],
  ["CC(C)N(C(=O)C12C3C4C5(C(=O)O)C(C1C35I)C42C(=O)O)C(C)C (configuration not stated)", "TGI", ">", 100],
  ["Cc1cc(=O)[nH]c(NNC(C#N)c2ccccc2O)n1 (configuration not stated)", "TGI", ">", 100],
  ["COc1cc2c(cc1OC)C(C(CBr)CBr)N(C1CCCC1)CC2 (configuration not stated)", "TGI", ">", 100],
  ["CN(C)C=N[C@@H](C(=O)O)c1ccccc1", "TGI", ">", 100],
  ["CC/C=C/c1cc2c(cc1O)CCC1C2CC[C@@]2(C)C1CC[C@@H]2O (some centres not stated)", "TGI", "=", 24.1],
  ["CC(C)(C)c1ccc(C2CC(=O)C3=C(C2)Nc2ccccc2N(C(=O)c2ccccc2Cl)C3c2ccc(F)cc2)cc1 (configuration not stated)", "TGI", ">", 100],
  ["O=C1C(N2CCN(CCOCCO)CC2)=C(Cl)C(=O)c2ncccc21", "TGI", "=", 43.7],
  ["Cc1ccc(N=C/C=C(\\Nc2ccc(C)cc2)c2ccc3ccccc3c2)cc1", "TGI", "=", 11.2],
  ["CC(C)=Cc1cc(CCC/C(C)=C/Cc2c(O)cc(C)c(C(=O)O)c2O)co1", "TGI", ">", 100],
  ["O=C(O)COc1ccc(OCC(=O)O)cc1", "TGI", "=", 17],
  ["Cn1c2ccc(Cl)cc2c2ccc3c(c21)C(=O)C=CC3=O", "TGI", ">", 10],
  ["Cc1nn(C)c2ncnc(N/N=C/c3cccc(O)c3O)c12", "TGI", ">", 100],
  ["CCC1=C(C[C@H]2NCCc3cc(OC)c(OC)cc32)C[C@H]2c3cc(OC)c(OC)cc3CCN2C1", "TGI", "=", 0.192],
  ["COc1ccc(/C=c2\\[nH]c3nc(=O)c(N4CCCCC4)c(N)n3c2=O)cc1", "TGI", ">", 100],
  ["Oc1c(Cl)cc2cc1-c1cc(cc(Cl)c1O)CCc1c(cc(Cl)c(O)c1Cl)-c1cc(Cl)c(c(Cl)c1O)/C=C\\2", "TGI", "=", 19.3],
  ["CCCCNS(=O)(=O)c1ccc(-c2ccc3c(c2)-c2ccc(S(=O)(=O)NCCCC)cc2S3(=O)=O)cc1", "TGI", "=", 29.7],
  ["O=C1c2ccccc2C2(c3ccc(F)cc3)NCCN12 (configuration not stated)", "TGI", ">", 100],
  ["Cc1cc2c(=O)c3ccc(Cl)cc3[nH]c2c(C(N)=O)c1C", "TGI", ">", 100],
  ["COc1ccc(/C=C2\\CCCc3ccccc3C2=O)cc1", "TGI", ">", 100]
]}
